Ref: patent US9611278B2

- SUBJECT_OF_TEST: sGC α1/β1 heterodimer stably expressed in CHO-K1 cells (CHO-K1/sGC) (Homo sapiens, UniProt Q02108+Q02153)
- Construct: expressed in transfected cells
- Sequence (Q02108 1-690): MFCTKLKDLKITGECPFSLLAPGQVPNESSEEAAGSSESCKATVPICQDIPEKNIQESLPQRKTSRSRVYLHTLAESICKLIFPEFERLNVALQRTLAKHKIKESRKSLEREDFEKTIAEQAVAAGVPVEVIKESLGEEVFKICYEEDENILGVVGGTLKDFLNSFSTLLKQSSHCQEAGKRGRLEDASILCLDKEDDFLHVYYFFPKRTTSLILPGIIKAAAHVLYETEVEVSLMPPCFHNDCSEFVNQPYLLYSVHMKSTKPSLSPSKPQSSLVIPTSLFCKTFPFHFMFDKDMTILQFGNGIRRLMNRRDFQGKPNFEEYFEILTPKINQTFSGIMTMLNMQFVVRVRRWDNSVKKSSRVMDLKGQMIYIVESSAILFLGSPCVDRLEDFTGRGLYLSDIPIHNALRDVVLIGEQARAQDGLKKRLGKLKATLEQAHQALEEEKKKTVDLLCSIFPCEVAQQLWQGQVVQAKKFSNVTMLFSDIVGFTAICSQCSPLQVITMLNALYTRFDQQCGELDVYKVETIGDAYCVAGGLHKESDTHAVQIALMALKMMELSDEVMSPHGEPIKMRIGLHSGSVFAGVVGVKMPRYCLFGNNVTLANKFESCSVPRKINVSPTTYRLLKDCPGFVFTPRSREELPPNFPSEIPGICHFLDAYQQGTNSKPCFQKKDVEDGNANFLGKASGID
- Sequence (Q02153 1-619): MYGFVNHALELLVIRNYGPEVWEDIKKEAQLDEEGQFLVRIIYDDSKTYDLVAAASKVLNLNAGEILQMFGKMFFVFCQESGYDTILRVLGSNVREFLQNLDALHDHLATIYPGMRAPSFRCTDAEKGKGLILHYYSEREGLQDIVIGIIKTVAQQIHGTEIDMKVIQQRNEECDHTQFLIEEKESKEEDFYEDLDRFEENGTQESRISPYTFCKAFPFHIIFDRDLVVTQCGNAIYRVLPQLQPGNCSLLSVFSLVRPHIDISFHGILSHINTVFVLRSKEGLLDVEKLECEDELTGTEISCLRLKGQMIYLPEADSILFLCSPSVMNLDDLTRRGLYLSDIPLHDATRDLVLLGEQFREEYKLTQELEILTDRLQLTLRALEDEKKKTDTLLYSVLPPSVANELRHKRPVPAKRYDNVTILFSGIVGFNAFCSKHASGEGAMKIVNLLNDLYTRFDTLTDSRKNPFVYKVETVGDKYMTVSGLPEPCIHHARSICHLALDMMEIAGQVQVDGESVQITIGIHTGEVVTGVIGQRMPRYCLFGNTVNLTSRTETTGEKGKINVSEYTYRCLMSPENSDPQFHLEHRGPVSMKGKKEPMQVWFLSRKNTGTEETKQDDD
- EXPERIMENTAL_PROTOCOL: Cell-based sGC Functional Assay (CASA Assay)
- MEASUREMENT_CONDITIONS: CHO-K1, activation as percentage of maximum cGMP production of Compound A (set to 100%); read-out: % Act.
MEASURED_METRIC: Emax (%)

For orientation, consider the following solved cases.
[2H]C([2H])([2H])n1ncc2c(-c3nc(N)c4c(n3)NC(=O)C4(c3nnc(C4CC4)o3)C3CC3)nc(CCC(F)(F)C(F)(F)F)nc21 (stereo not shown) = 165
Cn1ncc2c(-c3nc(N)c4c(n3)NC(=O)C4(C)c3cn(C4CC4)nn3)nc(CCC(F)(F)C(F)(F)F)nc21 (stereo not shown) = 117

a = Cn1ncc2c(-c3nc(N)c4c(n3)NC(=O)C4(C)c3ccc(Cl)cn3)nc(CC3CC(F)(F)C3)nc21 (stereo not shown)
b = Cn1ncc(C2(C)C(=O)Nc3nc(-c4nc(CCC(F)(F)C(F)(F)F)nc5c4cnn5C)nc(N)c32)n1 (stereo not shown)
**Query** Of a and b , which one carries the higher reported Emax? Kindly give the label for the entry you pick.
**Result** a
